Measured Target: D(2) dopamine receptor (Homo sapiens, UniProt P14416)
Sequence (P14416 whole entry): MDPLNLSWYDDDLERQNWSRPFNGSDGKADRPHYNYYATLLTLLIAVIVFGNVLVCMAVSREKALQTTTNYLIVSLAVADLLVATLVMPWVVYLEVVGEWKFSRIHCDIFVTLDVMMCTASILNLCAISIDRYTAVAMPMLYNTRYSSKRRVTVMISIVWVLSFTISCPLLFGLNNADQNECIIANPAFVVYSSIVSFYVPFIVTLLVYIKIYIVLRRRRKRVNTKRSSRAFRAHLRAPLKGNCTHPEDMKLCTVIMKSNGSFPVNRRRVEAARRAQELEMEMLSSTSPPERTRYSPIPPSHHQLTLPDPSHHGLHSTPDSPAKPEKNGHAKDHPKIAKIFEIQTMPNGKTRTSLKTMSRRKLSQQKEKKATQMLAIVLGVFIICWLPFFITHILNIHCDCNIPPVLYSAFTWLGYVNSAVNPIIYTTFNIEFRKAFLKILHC
Protocol Description: Agonist activity at human recombinant dopamine D2S receptor expressed in HEK cells by GTPgammaS binding assay

{"Smiles Repr": "O=c1[nH]c2c(O)ccc(CCNCCS(=O)(=O)CCCOCCc3ccccc3)c2s1", "Measured Target": "D(2) dopamine receptor (Homo sapiens, UniProt P14416)", "EC50": "2 nM"}

###

Measured Target: Beta-2 adrenergic receptor (Homo sapiens, UniProt P07550)
Sequence (P07550 whole entry): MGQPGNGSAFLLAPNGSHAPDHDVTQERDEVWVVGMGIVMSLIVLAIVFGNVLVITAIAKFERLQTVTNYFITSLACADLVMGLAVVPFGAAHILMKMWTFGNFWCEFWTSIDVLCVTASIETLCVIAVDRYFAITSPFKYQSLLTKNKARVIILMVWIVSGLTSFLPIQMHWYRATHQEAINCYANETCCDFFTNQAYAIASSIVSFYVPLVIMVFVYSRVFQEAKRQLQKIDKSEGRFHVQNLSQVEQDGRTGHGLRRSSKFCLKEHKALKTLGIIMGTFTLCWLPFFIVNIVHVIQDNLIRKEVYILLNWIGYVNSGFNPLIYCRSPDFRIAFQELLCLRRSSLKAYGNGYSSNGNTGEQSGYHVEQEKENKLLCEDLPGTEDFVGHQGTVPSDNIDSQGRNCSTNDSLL
Protocol Description: Agonist activity at human beta-2 adrenergic receptor expressed in human H292 cells assessed as accumulation of intracellular cAMP after 1 hr by AlphaScreen assay
pEC50: −log10 of the molar value.

{"Smiles Repr": "CC(C)N(C)CCCN(CCNCCc1ccc(O)c2[nH]c(=O)sc12)C(=O)CCOCCc1cccc(Cl)c1", "pEC50": 8.30}
{"Smiles Repr": "O=C(CCOCCc1cccc(Cl)c1)N(CCNCCc1ccc(O)c2[nH]c(=O)sc12)CCN1CCCCC1", "pEC50": 7.90}
{"Smiles Repr": "CN(C)CCCN(CCNCCc1ccc(O)c2[nH]c(=O)sc12)C(=O)CCOCCc1ccccc1", "pEC50": 7.80}
{"Smiles Repr": "NCCCN(CCNCCc1ccc(O)c2[nH]c(=O)sc12)C(=O)CCOCCc1ccccc1", "pEC50": 6.50}
{"Smiles Repr": "CCN(C)CCCN(CCNCCc1ccc(O)c2[nH]c(=O)sc12)C(=O)CCOCCc1cccc(Cl)c1", "pEC50": 8.00}
{"Smiles Repr": "CN(CCCN(CCNCCc1ccc(O)c2[nH]c(=O)sc12)C(=O)CCOCCc1cccc(Cl)c1)C1CC1", "pEC50": 8.10}
{"Smiles Repr": "CN(C)CCN(CCNCCc1ccc(O)c2[nH]c(=O)sc12)C(=O)CCOCCc1ccccc1", "pEC50": 8.20}
{"Smiles Repr": "CCN(CC)CCN(CCNCCc1ccc(O)c2[nH]c(=O)sc12)C(=O)CCOCCc1cccc(OC)c1", "pEC50": 8.10}
{"Smiles Repr": "CCN(CC)CCN(CCNCCc1ccc(O)c2[nH]c(=O)sc12)C(=O)CCOCCc1cccc(Cl)c1", "pEC50": 8.20}

###

Protocol Description: Terminal half life in iv dosed rat
Format: ADME, organism-based
Assay Context: in vivo, read-out: beta t1/2 (converted)

{"Smiles Repr": "Br.CCN(CC)CCN(CCNCCc1ccc(O)c2[nH]c(=O)sc12)C(=O)CCOCCc1cccc2ccccc12", "half-life": "11 h"}

###

Protocol Description: Terminal half life in iv dosed dog
Format: ADME, organism-based, Canis lupus familiaris
Assay Context: in vivo, read-out: beta t1/2 (converted)
Measured Endpoint: half-life (h)

{"Smiles Repr": "Br.CCN(CC)CCN(CCNCCc1ccc(O)c2[nH]c(=O)sc12)C(=O)CCOCCc1cccc2ccccc12", "Measured Endpoint": "half-life", "Reported Measurement": 18}

###

Protocol Description: Apparent volume of distribution in iv dosed dog
Assay type: ADME, organism-based, Canis lupus familiaris
Assay Context: in vivo, read-out: Vz

{"Smiles Repr": "Br.CCN(CC)CCN(CCNCCc1ccc(O)c2[nH]c(=O)sc12)C(=O)CCOCCc1cccc2ccccc12", "Vd, L/kg": 17}

###

Protocol Description: Terminal half life in iv dosed guinea pig
Format: ADME, organism-based, Cavia porcellus
Assay Context: in vivo, read-out: beta t1/2 (converted)
Measured Endpoint: half-life (h)

{"Smiles Repr": "Br.CCN(CC)CCN(CCNCCc1ccc(O)c2[nH]c(=O)sc12)C(=O)CCOCCc1cccc2ccccc12", "Measured Endpoint": "half-life", "Reported Measurement": 17}

###

Protocol Description: Intrinsic clearance in rat measured per million cells
Type: ADME

{"Smiles Repr": "Br.CCN(CC)CCN(CCNCCc1ccc(O)c2[nH]c(=O)sc12)C(=O)CCOCCc1cccc2ccccc12", "hepatocyte CLint": "105 µL/min/1e6 cells"}
